Hello, the source for this data is PubChem BioAssay (Tox21), in case you need it.

ASSAY SYSTEM: Muscarinic acetylcholine receptor M1 (Homo sapiens)
METHOD SUMMARY: Cholinergic receptor muscarinic 1 (CHRM1) small molecule antagonists, cell-based qHTS assay (AID 1963588); also: % is scaled to controls: 0 for no effect and ±100 for the full control effect; nearly all actives have a fitted effect of over 40% in size
CONDITION DETAILS: CHRM1-CHO antagonist mode, calcium flux fluorescence; series mostly up to 61.5 µM
Results filed as inconclusive are left out. Activity calls are given as the source filed them. Calls follow the shape of the full dose curve.
RESULT TYPE: activity, negative = inhibition

Input: Sample "CCCC(=O)O[C@]1(C(=O)COC(=O)CC)CC[C@H]2[C@@H]3CCC4=CC(=O)CC[C@]4(C)[C@H]3[C@@H](O)C[C@@]21C" — what was its activity, negative = inhibition?
Output: 0.329% [at 12.6 µM] (inactive)

Input: So what does the record say about activity, negative = inhibition for "COC=O" ?
Output: 1.52% [at 5.58 µM] (inactive)

Input: Can you share its activity, negative = inhibition? I mean this compound: "c1cc2ccc3ccc4ccc5cccc6c(c1)c2c3c4c56"
Output: 5.84% [at 2.17 µM] (inactive)

Input: Please give the measured activity, negative = inhibition for this compound: "COc1cc2ncnc(Nc3cccc(Cl)c3)c2cc1OC"
Output: -4.44% [at 12.6 µM] (inactive)

Input: What value of activity, negative = inhibition has been reported for the following compound? "CCCCCCCCCCCCCOC(=O)CCSCCC(=O)OCCCCCCCCCCCCC"
Output: 18% [at 12.6 µM] (inactive)

Input: # lookup: activity, negative = inhibition of "O=C(O)c1ccccc1Nc1cc(Cl)ccc1C(=O)O"
Output: 22.2% [at 12.6 µM] (inactive)

Input: Need activity, negative = inhibition of "O=C(O)CN(CCOCCOCCN(CC(=O)O)CC(=O)O)CC(=O)O" , thanks.
Output: -20.9% [at 0.232 µM] (inactive)

Input: Given the compound "O=S(=O)(O)c1cc(S(=O)(=O)O)c2ccc3c(S(=O)(=O)O)cc(S(=O)(=O)O)c4ccc1c2c43" , what is its reported activity, negative = inhibition?
Output: -5.56% [at 12.6 µM] (inactive)

Input: Item under review: "N=C(N)N1CCc2ccccc2C1" . Reported activity, negative = inhibition?
Output: -1.92% [at 5.58 µM] (inactive)

Input: Returns the measured activity, negative = inhibition for the input compound. Input: "N[C@@H](CCC(=O)N[C@@H](CS)C(=O)NCC(=O)O)C(=O)O"
Output: 11.9% [at 12.6 µM] (inactive)

Input: Record request: activity, negative = inhibition value, item "Cc1[nH]c(C)c(Cl)c(=O)c1Cl"
Output: 9.6% [at 12.6 µM] (inactive)

====

METHOD SUMMARY: Nuclear factor erythroid 2-related factor 2/antioxidant responsive element (Nrf2/ARE) small molecule agonists: luciferase reporter gene qHTS assay in human keratinocytes (AID 1919969); also: nearly all actives have a fitted effect of over 35% in size
CONDITION DETAILS: KeratinoSens HaCaT ARE-luciferase, luminescence, 24 h; series mostly up to 92.4 µM
Inconclusive results are not listed. Activity calls are given as the source filed them. The call rests on the fitted dose curve.
Please reply with one of these outcomes: Y = active, N = inactive

Input: Query: recorded result category for "CCCCCCCC/C=C/CCCCCCCC1=NCCN1CCO" in this test
Output: N

Input: In this assay, the call recorded for "CCC(C)(C)c1cc(O)c(C(C)(C)CC)cc1O" was what?
Output: Y

Input: State the result this test recorded for "CCCc1c(OCCCOc2ccc(OCC(=O)O)cc2)ccc(C(C)=O)c1O" .
Output: N

Input: What was the test verdict on "CCCC(CCC)(C(=O)OCC)C(=O)OCC" ?
Output: N

Input: Query: recorded result category for "CC(=O)NC1(c2cccc(F)c2)CCN(CC[C@@]2(c3ccc(Cl)c(Cl)c3)CN(c3ccccc3)C(=O)CO2)CC1" in this test
Output: N

Input: Please share the test call associated with "OC(C#CCN1CCCC1)(c1ccccc1)c1ccccc1" .
Output: N

Input: For C=C1CCC2CC1C2(C)C (stereo not drawn) , what call appears in the results of this test?
Output: N

Input: Any idea what this test logged for "CCCCC=O" ?
Output: N

Input: What classification did "COc1cc(-c2ccc(=O)[nH]n2)ccc1OC(F)F" end up with in this test?
Output: N

Input: I would be grateful if you could indicate the recorded call for "CCc1ccccc1" .
Output: N

Input: Would you mind telling me which call this test gave "O=[N+]([O-])c1ccc(NCCO)c(OCCO)c1" ?
Output: N

Input: Hello, I am checking results. What call was entered for "O=C(Nc1ccccc1)c1cc(Cl)ccc1O" ?
Output: Y

Input: For "COC(=O)Nc1nc2ccc(C(=O)c3ccccc3)cc2[nH]1" , what call appears in the results of this test?
Output: Y

Input: Answer briefly: the call reported for "COc1ccc(Cc2cnc(N)nc2N)cc1OC" in this assay.
Output: N

Input: Field: outcome | Entry: C=CC(=O)OCC(C)OCC(C)OCC(C)OC(=O)C=C (stereo not drawn)
Output: Y

Input: Could you please tell me the result logged for "Cc1oc2c(NC(=O)c3c(Cl)cccc3Cl)cccc2c1C(C)(C)O" in this assay?
Output: N

Input: Write down the call the test reported for this molecule. Item: CC(O)CC(C)O (stereo not drawn)
Output: N

Input: # outcome recorded in this test, key = "NCCCN1CCOCC1"
Output: N

Input: // param item: "CSc1ccc(/C=C2/C(C)=C(CC(=O)O)c3cc(F)ccc32)cc1" ; yields the recorded call
Output: N

Input: # fetch the recorded call for "CC(=O)c1ccc2c(c1)Cc1ccccc1-2" here
Output: N

Input: Record lookup: outcome of this test for "NC(=O)c1nc(-c2cccc(-c3cc(F)ccc3OCC(F)(F)C(F)(F)F)c2)n[nH]1" ?
Output: N

Input: Just curious, what result did "O=C1NCC2(CCN(CCc3ccccc3)CC2)O1" get here?
Output: N

Input: Assay outcome for CC1=CC(C)C(C=O)C(C)C1 (stereo not drawn) : what was it?
Output: N

Input: Per the records of this test, what outcome belongs to "NC(=O)n1c(O)c(C(=O)c2cccs2)c2cc(Cl)ccc21" ?
Output: Y

Input: // return assay outcome for "CCCC1CCC(=O)CC1"
Output: N

Input: Tell me the assay call for "CCN(CC)CCOC(=O)C1(C2CCCCC2)CCCCC1" please.
Output: N

Input: Query: recorded result category for CCOc1ccccc1OCC1CNCCO1 (stereo not drawn) in this test
Output: N

Input: Hello, I am checking results. What call was entered for "C=CCCCCCCCCOC(C)=O" ?
Output: N

====

ASSAY SYSTEM: D(2) dopamine receptor (Homo sapiens)
METHOD SUMMARY: Dopamine D2 receptor (DRD2) small molecule antagonists, cell-based qHTS assay (AID 1963595)
CONDITION DETAILS: HEK293-DRD2 cAMP HTRF antagonist mode; series mostly up to 92.4 µM
Inconclusive results are not listed. Calls of active or inactive are those of the source. Calls follow the shape of the dose curve; as a rule, active = well fitted inhibition curve with a large enough effect in the signal ratio in the repeat runs, with a control signal flat; inconclusive = weak or mixed curves, or effect the other way; inactive = flat fitted curve, though single readings scatter; the % refers to the signal ratio.
Please state which outcome applies, choosing from 1.0 = active, 0.0 = inactive

Input: // param item: "CCc1ccc(C(c2ccc(CC)cc2)C(Cl)Cl)cc1" ; yields the recorded call
Output: 0.0

Input: Which outcome did this test record for the compound "CC(=O)[O][Al]" ?
Output: 0.0

Input: Outcome? "CN1CCN(c2ccccc2/C=C2\SCCN(c3ccc(Cl)c(Cl)c3)C2=O)CC1"
Output: 1.0

Input: Which outcome was entered for the compound "O=C1CCCCCO1" in this test?
Output: 0.0

Input: Recorded call for "CO/N=C(/C(=O)N[C@@H]1C(=O)N2C(C(=O)OCOC(=O)C(C)(C)C)=C(C)CS[C@H]12)c1csc(N)n1" ?
Output: 0.0

Input: Recorded call for CC(C)(Cc1c[nH]c2ccccc12)NCC(O)COc1ccccc1C#N (stereo not drawn) ?
Output: 0.0

Input: Which outcome was entered for the compound "Cc1coc2ccccc2c1=O" in this test?
Output: 0.0

Input: State the result this test recorded for "NC(=O)c1c(Cl)cccc1Cl" .
Output: 0.0

Input: Status in this test for "O=C(O)c1ccccc1C(=O)OCc1ccccc1" ?
Output: 0.0

Input: Lab log entry: "CCCCN(CCO)CCCC" — outcome as called in the assay?
Output: 0.0

Input: Kindly provide the recorded test outcome for the following compound: "CCOc1ccc(C(=O)OCCN(CC)CC)cc1"
Output: 0.0

Input: Hi team, can someone confirm the assay call for "O=C(O)CCc1nc(-c2ccccc2)c(-c2ccccc2)o1" ?
Output: 0.0

Input: State the result this test recorded for "CCCCN1C(=O)c2ccccc2C1=O" .
Output: 0.0

====

ASSAY SYSTEM: Beta-2 adrenergic receptor (Homo sapiens)
METHOD SUMMARY: Adrenergic beta2 receptor (ADRB2) small molecule antagonists, cell-based qHTS assay (AID 1963592); also: nearly all actives have a fitted effect of over 50% in size
CONDITION DETAILS: CHO-ADRB2 cells, isoproterenol-stimulated cAMP HTRF ratio, 0.5 h; series mostly up to 92.4 µM
Inconclusive results are not listed. The source made the active and inactive calls. Calls come from the whole dose curve.
Classes to choose from: active, inactive

Input: Hello, I am checking results. What call was entered for "CC(C)=CCC[C@](C)(O)[C@@H]1CC=C(C)CC1" ?
Output: inactive

Input: Tell me the recorded outcome of this test for "CS(=O)(=O)c1ccc([C@@H](O)[C@@H](CF)NC(=O)C(Cl)Cl)cc1" .
Output: inactive

Input: Status in this test for CCCC(C)C(=O)O (stereo not drawn) ?
Output: inactive

Input: Tell me the assay call for "CCCCCCCCCCCCN1CCCC1=O" please.
Output: inactive

Input: Look up the recorded call for "COc1ccc(OC)c(Cl)c1" in this test.
Output: inactive

Input: What classification did "C=CC(=O)[O-].C=CC(=O)[O-].[Zn+2]" end up with in this test?
Output: inactive

Input: Status in this test for "CC(C)(C)Cl" ?
Output: inactive

Input: What call does the record list for "Cc1ccc(NC=O)c(C)c1" ?
Output: inactive

Input: Please share the test call associated with "CCc1oc2ccccc2c1C(=O)c1cc(Br)c(O)c(Br)c1" .
Output: inactive

Input: // outcome(item) with item = "O=C(Nc1ccc2c(c1)Cc1ccccc1-2)C(F)(F)F"
Output: inactive

Input: Could you check what this test reported for "Cc1ccc(C#N)cc1" ?
Output: inactive

Input: Test call for this molecule, please: "Nc1nnc(-c2ccc([N+](=O)[O-])o2)o1"
Output: inactive

Input: What did the test return for O=C1NC(=O)C2CC=CCC12 (stereo not drawn) ?
Output: inactive

Input: Which outcome was entered for the molecule CCNc1nc(NC(C)CC)nc(OC)n1 (stereo not drawn) in this test?
Output: inactive

Input: GET /call?item= "CSc1ccc(/C=C2/C(C)=C(CC(=O)O)c3cc(F)ccc32)cc1" returns the recorded outcome of this test.
Output: inactive

Input: Please indicate how the test categorized CCOCC(C)O (stereo not drawn) .
Output: inactive

Input: Could you please tell me the result logged for "CCN(CC)CCNC(=O)COc1ccc(OC)cc1" in this assay?
Output: inactive

Input: State the result this test recorded for "CCCCN(CCCC)c1ccc(C(=O)c2ccccc2C(=O)O)c(O)c1" .
Output: inactive

Input: Assay result, entry "O=C1c2ccccc2C(=O)N1CCc1noc(-c2ccc(CN3CCCCCC3)s2)n1" — outcome?
Output: inactive

Input: Query: recorded result category for "Clc1ccc2nsnc2c1NC1=NCCN1" in this test
Output: inactive

Input: Status in this test for "O=C(/C=C/c1ccc([N+](=O)[O-])cc1)c1ccccc1" ?
Output: inactive

Input: Which outcome did this test record for the molecule "CCOC(=O)[C@H](CCc1ccccc1)N[C@H]1CCc2ccccc2N(CC(=O)O)C1=O" ?
Output: active

Input: Test call for this molecule, please: "O=c1c2ccccc2oc2ccccc12"
Output: inactive

Input: Given "C=Cc1ccc(C=C)cc1" , state the outcome it received in this test.
Output: inactive

Input: GET /call?item= CC1=CCCC(C)(C)C12CCC(C)O2 (stereo not drawn) returns the recorded outcome of this test.
Output: inactive

Input: Which outcome was assigned to "CC1=C(CC(=O)O)c2cc(F)ccc2/C1=C\c1ccc(S(C)(=O)=O)cc1" in this test?
Output: inactive

Input: Answer briefly: the call reported for "C=CC(=C)CCCC(C)(C)OC(C)=O" in this assay.
Output: inactive

Input: Given C=CCOCC(O)CCl (stereo not drawn) , state the outcome it received in this test.
Output: inactive
